assay: Human HepG2 cell viability assay in 384 well format; format: toxicity, cell-based; set-up: dose 125 nL, time 70.5 hour; concentration not given beside the values; details: HepG2 cells, read-out: Inhibition
attribute_measured: cytotoxicity at 70.5 h (%)
Note: unit % is implicit; provide only the numeric part.

Record CNc1nc(N2CCN(Cc3ccsc3)C(CCO)C2)nc2c1CCC2 (stereo not given) , field cytotoxicity at 70.5 h: -1.63

Record CCN(Cc1ccncc1)CC1(O)CCN(C(=O)c2cccc(C)n2)C1 (stereo not given) , field cytotoxicity at 70.5 h: -4.96

Record CC(C)c1nc(CN(C)C(=O)C(O)c2ccc(Cl)cc2)cs1 (stereo not given) , field cytotoxicity at 70.5 h: -0.849

Record Cc1cc(C2CCCN(Cc3ncc(C)o3)C2)n[nH]1 (stereo not given) , field cytotoxicity at 70.5 h: -10.2

Record Cn1cc(N2CCC(NC(=O)c3ccccc3Cl)C2=O)cn1 (stereo not given) , field cytotoxicity at 70.5 h: 1.26

Record CCc1noc(CCC(=O)N2CCC(c3ccn[nH]3)C2)n1 (stereo not given) , field cytotoxicity at 70.5 h: 17.8

Record Cc1ccsc1C(=O)N1CCN(Cc2cscn2)CC1 , field cytotoxicity at 70.5 h: -3.03

Record c1ccc2c(N3CCOCC3)cnnc2c1 , field cytotoxicity at 70.5 h: -8.59

Record CNc1cc(C)nc(N2CCC3(CC2)[C@H](O)C[C@@H]3OC)n1 , field cytotoxicity at 70.5 h: -2.45

Record CCn1cnnc1CCNCc1c[nH]nc1-c1ccc(F)cc1 , field cytotoxicity at 70.5 h: 5.79

Record Cn1cccc1C(=O)N1CCC2(CC1)CN(c1ccsc1)C(=O)CO2 , field cytotoxicity at 70.5 h: -15.9

Record CNC(=O)c1cc(C2CCCNC2)n[nH]1 (stereo not given) , field cytotoxicity at 70.5 h: 21.1

Record N#CCSCCCN1CCN(C(=O)c2ccccc2F)CC1 , field cytotoxicity at 70.5 h: -12.3

Record CCOc1ccc(CN(CCOC)C(=O)c2ccncc2Cl)cc1 , field cytotoxicity at 70.5 h: -3.6

Record O=C(NCC1CCOC1)c1cc(-c2ccc(F)cc2)[nH]n1 (stereo not given) , field cytotoxicity at 70.5 h: -10.8

Record COCC1CN(Cc2ccncc2)Cc2nn(C)cc21 (stereo not given) , field cytotoxicity at 70.5 h: 30.7

Record CCN(CC)C(=O)c1ccn(COc2ccccc2)n1 , field cytotoxicity at 70.5 h: -7.93

Record COCCNC(=O)CCNc1cc(C)nc(-c2ccncc2)n1 , field cytotoxicity at 70.5 h: -15.7

Record COc1cccc(CC(C)NC(=O)NCCNC(C)=O)c1 (stereo not given) , field cytotoxicity at 70.5 h: -1.81

Record COc1ccc(CCC(=O)NCc2cc(C)on2)cc1 , field cytotoxicity at 70.5 h: 8.95

Record CC(C)(C)CN1CCCC12Cc1ccccc1CNC2=O (stereo not given) , field cytotoxicity at 70.5 h: -7.71

Record CCOCCNC(=O)c1cccnc1N1CCCC1c1ccccn1 (stereo not given) , field cytotoxicity at 70.5 h: -8.32

Record O=C(O)c1cccc(CN2CCC(c3ccnc4ccnn34)CC2)c1 , field cytotoxicity at 70.5 h: -8.88

Record c1cnn(CCNCCCOc2ccc3c(c2)OCO3)c1 , field cytotoxicity at 70.5 h: 0.993

Record O=C(c1ccccn1)N1CCCC(c2nccn2CC2CCC2)C1 (stereo not given) , field cytotoxicity at 70.5 h: 18.9

----------
assay: Human HepG2 cell viability assay in 384 well format; format: toxicity, cell-based; set-up: dose 125 nL, time 70.5 hour; concentration not given beside the values; conditions: HepG2 cells, read-out: Inhibition
Hi there, I'd appreciate the recorded cytotoxicity at 70.5 h for every entry that follows.
Note: unit % is implicit; provide only the numeric part.

Record CC(C)CN(Cc1nnc(-c2ccco2)o1)CC(C)C , field cytotoxicity at 70.5 h: 2.87

Record COc1ccccc1N1CCC(CNS(=O)(=O)c2c(C)nn(C)c2C)C1 (stereo not drawn) , field cytotoxicity at 70.5 h: 2.25

Record COc1ccc(CN2CCc3c(CNC(=O)CC#N)nn(C)c3C2)cc1 , field cytotoxicity at 70.5 h: -1.4

Record CCN(Cc1noc(C2CCC2)n1)C(=O)CCc1cc2n(n1)CCNC2 , field cytotoxicity at 70.5 h: -7.31

Record O=C(c1cc(Br)c[nH]1)N1CCN(Cc2ccco2)CC1 , field cytotoxicity at 70.5 h: 5.49

Record CCOCC(O)CN1CCN(C(=O)c2cccc(CC#N)c2)CC1 (stereo not drawn) , field cytotoxicity at 70.5 h: -1.07

Record CC(C)N1C(=O)CO[C@H]2CCN(C(=O)c3ccc4c(c3)CCC4)CC[C@@H]21 , field cytotoxicity at 70.5 h: -3.57

Record c1ccc(Cn2cc(CNCC3CCCN3c3cccnn3)cn2)cc1 (stereo not drawn) , field cytotoxicity at 70.5 h: 3.57

Record CN(CCC#N)C(=O)C(C)(C)Oc1ccc(C(N)=O)cc1 , field cytotoxicity at 70.5 h: 20.4

Record CN(Cc1ccco1)[C@@H]1CN(Cc2ccncc2)C[C@@H]2CCCO[C@@H]21 , field cytotoxicity at 70.5 h: -13.9

Record O=C(c1cccc(NCCO)c1)N1CCOCC1 , field cytotoxicity at 70.5 h: 6.48

Record c1cc(NC2CC3(CCN(Cc4cc[nH]n4)C3)C2)ncn1 (stereo not drawn) , field cytotoxicity at 70.5 h: -16.2

Record CNS(=O)(=O)CCNC(=O)c1coc(COc2ccc(F)cc2)n1 , field cytotoxicity at 70.5 h: -4.33

Record c1ccc(-c2nc(CNC3CCc4ncnn4C3)no2)cc1 (stereo not drawn) , field cytotoxicity at 70.5 h: -3.91

Record Cc1ccccc1S(=O)(=O)NC(=O)C1(c2cccc(Cl)c2)CC1 , field cytotoxicity at 70.5 h: -5.62

Record CCN(CC1CN(Cc2c(C)noc2C)CCO1)c1cccnn1 (stereo not drawn) , field cytotoxicity at 70.5 h: 12.5

Record Cc1nn(C2CCCCC2)c2nc(C(C)(C)CN3CCOCC3)[nH]c12 , field cytotoxicity at 70.5 h: -6.99

Record Cn1cc(CN2CCCC3(CCN(C(=O)c4cnccn4)C3)C2)cn1 (stereo not drawn) , field cytotoxicity at 70.5 h: 11.1

Record Cc1noc(C)c1CN1CCOCC12CCN(c1ncccn1)CC2 , field cytotoxicity at 70.5 h: -8.87

Record Cc1nc(CNC(=O)CC2C(=O)NCCN2CCC(C)C)n[nH]1 (stereo not drawn) , field cytotoxicity at 70.5 h: -8.3

Record O=C1c2cnc(N3CCCCC3)nc2CN1c1ccc2c(c1)OCO2 , field cytotoxicity at 70.5 h: 16.4

Record CCc1noc(C2CCCCN2C(=O)c2ccoc2C)n1 (stereo not drawn) , field cytotoxicity at 70.5 h: 9.18

Record CS(=O)(=O)N1CCOCC2(CN(Cc3ccc(F)cc3)CCO2)C1 (stereo not drawn) , field cytotoxicity at 70.5 h: -3.17

----------
Hi there, I'd appreciate the recorded cytotoxicity at 70.5 h for every entry that follows.
experiment: Human HepG2 cell viability assay in 384 well format; format: toxicity, cell-based; set-up: dose 125 nL, time 70.5 hour; concentration not given beside the values; conditions: HepG2 cells, read-out: Inhibition
Note: unit % is implicit; provide only the numeric part.

Record c1ccc(CN2Cc3ccnn3CC(COCc3cccnc3)C2)nc1 (centres undefined) , field cytotoxicity at 70.5 h: -9.03

Record CC(C)NC(=O)CN(C)C(=O)c1csc(Cc2ccccc2F)n1 , field cytotoxicity at 70.5 h: -6.85

Record CC(C)(C)OC(=O)N1CCn2c(nnc2C2CCCNC2)C1 (centres undefined) , field cytotoxicity at 70.5 h: 6.76

Record O=c1c2sccc2nc2n1CCN(Cc1ccsc1)CC2 , field cytotoxicity at 70.5 h: 17.3

Record Cc1[nH]c2c(C)cccc2c1CC(=O)N(C)CCN(C)C , field cytotoxicity at 70.5 h: -8.69

Record O=C1OC2(CCNCC2)CN1CC(=O)N1CCCC1c1nccs1 (centres undefined) , field cytotoxicity at 70.5 h: -7.02

Record COC(=O)c1ccc(NC2CCN(CC(F)(F)F)C2=O)cc1C (centres undefined) , field cytotoxicity at 70.5 h: 26.2

Record O=C(Nc1ccc2c(c1)OC1(CCCCC1)O2)c1ccc(=O)[nH]n1 , field cytotoxicity at 70.5 h: 0.889

Record Cc1ccccc1NC(=O)CCNC(=O)c1ccoc1 , field cytotoxicity at 70.5 h: 2.88

Record Cc1nc(N)cc(C2CN(C(=O)c3cscn3)CCO2)n1 (centres undefined) , field cytotoxicity at 70.5 h: -10.9

Record CCn1ncc(S(=O)(=O)N[C@@H]2CC[C@@H](n3ccnc3)[C@@H]2O)c1C , field cytotoxicity at 70.5 h: -10.4

Record CC(C)(C)c1nc(CN(Cc2cccnc2)C2CN3CCC2CC3)no1 (centres undefined) , field cytotoxicity at 70.5 h: -1.01

Record Cc1n[nH]c(C)c1CCN(C)C(=O)c1ccc(CN2CCCCC2)cc1 , field cytotoxicity at 70.5 h: 34.3

Record Cc1nc(N(C)C)nc(C)c1NC(=O)c1ccccc1F , field cytotoxicity at 70.5 h: -7.08

Record CC(C(=O)N1CCOCC1)N1CCc2cncnc2C1 (centres undefined) , field cytotoxicity at 70.5 h: -4.71

Record CCc1noc(C(C)N2CCN(Cc3noc(C)n3)CC2)n1 (centres undefined) , field cytotoxicity at 70.5 h: 26.6

Record Cc1nc(CC(=O)N2CCN(c3ccc(N(C)C)cc3)CC2)cs1 , field cytotoxicity at 70.5 h: 4.33

Record CCN(CC)C(=O)c1ccc(-c2ccsc2)nc1C , field cytotoxicity at 70.5 h: -6.78

Record COCc1cccc(CNC(=O)c2c(C)noc2C(C)C)c1 , field cytotoxicity at 70.5 h: 10.6

Record CC1COCCN1C(=O)Cc1cc(Cl)c2c(c1)OCCO2 (centres undefined) , field cytotoxicity at 70.5 h: -12.3

Record CN(Cc1cnccn1)C(=O)c1ccc(CSc2nnc[nH]2)o1 , field cytotoxicity at 70.5 h: -20.7

Record CCn1c(CN(C)C)nnc1C1CCN(Cc2ccc(Cl)c(F)c2)CC1 , field cytotoxicity at 70.5 h: -6.05

Record Cc1cc(NC(C)c2n[nH]c(C)n2)n2nc(C)c(C)c2n1 (centres undefined) , field cytotoxicity at 70.5 h: 20

Record Cc1cc(CN2CCN(Cc3ccc(C#N)cc3F)CC2)no1 , field cytotoxicity at 70.5 h: 1.27

Origin of measurements: ChEMBL document CHEMBL3507680
